Target System: PRMT5 (Homo sapiens)
Construct: purchased Viva (custom protein)
Sequence (O14744 whole entry): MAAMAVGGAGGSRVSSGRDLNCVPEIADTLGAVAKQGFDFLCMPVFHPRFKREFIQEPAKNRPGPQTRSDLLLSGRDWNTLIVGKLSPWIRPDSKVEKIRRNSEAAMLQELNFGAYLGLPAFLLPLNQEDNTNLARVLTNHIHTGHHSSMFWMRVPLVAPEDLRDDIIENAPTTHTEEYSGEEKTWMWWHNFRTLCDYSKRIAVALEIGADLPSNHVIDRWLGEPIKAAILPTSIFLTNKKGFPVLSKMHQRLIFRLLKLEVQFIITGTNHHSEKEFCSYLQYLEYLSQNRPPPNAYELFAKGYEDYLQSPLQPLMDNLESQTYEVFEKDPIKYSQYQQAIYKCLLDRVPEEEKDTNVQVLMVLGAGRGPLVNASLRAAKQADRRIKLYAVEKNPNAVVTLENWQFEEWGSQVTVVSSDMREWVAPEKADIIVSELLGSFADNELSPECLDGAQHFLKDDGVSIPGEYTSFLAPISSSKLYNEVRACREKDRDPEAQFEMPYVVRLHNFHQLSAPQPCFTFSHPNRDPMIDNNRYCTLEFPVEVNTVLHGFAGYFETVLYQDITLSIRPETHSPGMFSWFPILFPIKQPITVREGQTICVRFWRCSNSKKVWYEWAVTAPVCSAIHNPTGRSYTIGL
Sequence (Q9BQA1 whole entry partner): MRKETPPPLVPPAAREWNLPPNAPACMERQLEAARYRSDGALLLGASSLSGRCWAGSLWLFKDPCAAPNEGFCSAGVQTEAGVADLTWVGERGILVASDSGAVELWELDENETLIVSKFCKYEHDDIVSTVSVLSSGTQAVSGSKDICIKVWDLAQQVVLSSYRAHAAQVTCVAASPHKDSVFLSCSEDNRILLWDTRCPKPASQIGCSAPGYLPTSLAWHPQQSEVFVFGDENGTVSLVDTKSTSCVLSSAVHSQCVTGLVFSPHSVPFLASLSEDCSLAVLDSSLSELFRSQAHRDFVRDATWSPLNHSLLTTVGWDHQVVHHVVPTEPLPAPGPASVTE
Test Method Notes: PRMT5 biochemical IC50 assay with SAM as cofactor
Conditions Used: PRMT5, SAM as cofactor; read-out: SAM IC50
Endpoint: IC50

Compound | Measured
C[C@@H]1CC[C@@H](c2ccc3c(cnn3CCN(C)C)c2)N(C(=O)C(=O)Nc2cnc(N)c(C3CC3)c2)C1 (single isomer, unassigned) | 50 to 500 nM
Cc1cc(NC(=O)C(=O)N2C[C@@H](C)CC[C@@H]2c2cnc3[nH]ncc3c2)cnc1N (single isomer, unassigned) | > 500 nM
C[C@@H]1CC[C@@H](c2ccc(F)c(Cl)c2)N(C(=O)C(=O)Nc2cncc(C(N)=O)c2)C1 (single isomer, unassigned) [Compound 513] | > 500 nM
Cc1cc(NC(=O)C(=O)N2C[C@@H](C)CC[C@@H]2c2ccc(F)c(F)c2)cnc1N (single isomer, unassigned) | > 500 nM
Cc1nc2cc([C@H]3CC[C@H](C)CN3C(=O)C(=O)Nc3cnc(N)c(C4CC4)c3)ccc2s1 (single isomer, unassigned) | 50 to 500 nM
Cc1cc(NC(=O)C(=O)N2C[C@@H](C)CC[C@@H]2c2ccc3sc(C4CN(C)C4)nc3c2)cnc1C | < 50 nM
CNC(=O)[C@@H]1CC[C@@H](c2ccccc2)N(C(=O)C(=O)Nc2cnc(N)c(C)c2)C1 (racemic) | 50 to 500 nM
CNC(=O)c1cccc([C@H]2CC[C@H](C)CN2C(=O)C(=O)Nc2cncc(C)c2)c1 (racemic) | 50 to 500 nM
CCc1cc(NC(=O)C(=O)N2C[C@@H](C)CC[C@@H]2c2ccc3sc(C4CCN(CCC(F)(F)F)CC4)nc3c2)cnc1N | 50 to 500 nM
Cc1cc(NC(=O)C(=O)N2C[C@H](C)CC[C@H]2c2ccc3cc[nH]c(=O)c3c2)cnc1N (single isomer, unassigned) | < 50 nM
COc1ncc(NC(=O)C(=O)N2C[C@H](C)CC[C@H]2c2ccccc2)cc1C(N)=O (single isomer, unassigned) | 50 to 500 nM
C[C@@H]1CC[C@@H](c2cnc3[nH]ncc3c2)N(C(=O)C(=O)Nc2cncc(C(N)=O)c2)C1 (single isomer, unassigned) | > 500 nM
C[C@@H]1CC[C@@H](c2cc(Cl)cc(Cl)c2)N(C(=O)C(=O)Nc2cncc(C(N)=O)c2)C1 (racemic) [Compound 206] | 50 to 500 nM
